B1: MNAT1 (parent)
chain: LEEALYEYQPLQIETYGPHVPELE

# Variants of: B1
# procedure.text: protein stability index of a GFP-peptide fusion (GPS, HEK-293T) (PSI 1-6); higher = more stable;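 note: lentivirally expressed fusions sorted by FACS into six bins by GFP to DsRed ratio, PSI derived from sequencing read proportions per bin multiplied by bin number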
# details: c terminus: a fixed tail appended
recorded.metric: protein stability index
Please respond with just the number, no unit label.

E22H
2.2
L5Q
5.38
H19A
2.89
E22D
2.46
E14G
3.31
Q12P
5.02

Ask: Which protein stability index is listed for `T15K` ?
Result: 4.14

Ask: # get_value(readout='protein stability index', item= `P10K` )
Result: 4.53
